Recorded values, source ChEMBL document CHEMBL1201862.

System: Malme-3M
measurement_protocol: NCI tumour cell line growth inhibition, 48 h
Activity calls are given as the source filed them. Rule as the data show it: active = GI50 up to about 1.1 µM and inactive = higher.
Give measured GI50 for each item. Keep answers brief.

Incoming: Entry O=S(=O)(c1ccccc1)n1cnc(CCc2ccccc2)n1 : reported GI50 = ?
Outgoing: > 100 µM (inactive)

Incoming: Likewise for CCN(CC)C(=O)CC12CCCCC1=Nc1ccccc12 (centres undefined) ?
Outgoing: > 100 µM (inactive)

Incoming: Likewise for CN1Cc2c(ccc3c2OCO3)[C@@H]2[C@H](O)Cc3cc4c(cc3[C@@H]21)OCO4 ?
Outgoing: 4.63 µM (inactive)

Incoming: Likewise for CC1=NN(c2ccc(C)cc2)C2(C1)SCC(=O)N2c1nc2ccccc2s1 (centres undefined) ?
Outgoing: 23.5 µM (inactive)

###

Tested on: NCI/ADR-RES
measurement_protocol: NCI tumour cell line growth inhibition, 48 h
Calls of active or inactive are those of the source. Cut-off read from the data, not from the text of the source: active = GI50 up to about 1.1 µM and inactive = higher.
measurement_kind: GI50

Incoming: Entry COc1cc(/C=C2\N=C(c3ccccc3)N(c3nc4ccc(Sc5ccccc5)cc4[nH]3)C2=O)cc(OC)c1OC : reported GI50 = ?
Outgoing: 20.4 µM (inactive)

Incoming: Likewise for CCN(CC)CCCNc1nncc2cc3c([nH]c4ccccc43)c(C)c12 ?
Outgoing: 48.9 µM (inactive)

Incoming: Likewise for COC(=O)Cc1ccc(Oc2nc3ccccc3nc2-c2cccs2)cc1 ?
Outgoing: 79.4 µM (inactive)

###

System: SF-295
measurement_protocol: NCI tumour cell line growth inhibition, 48 h
Activity calls are given as the source filed them. Cut-off read from the data, not from the text of the source: active = GI50 up to about 1.1 µM and inactive = higher.
Give measured GI50 for each item. Keep answers brief.

Incoming: Entry CCC(/C=C/c1ccccc1)=N\N=C(\C=C\c1ccccc1)CC : reported GI50 = ?
Outgoing: > 100 µM (inactive)

Incoming: Likewise for COc1cc2c(c3c1c(=O)c1ccccc1n3C)C=CC(C)(C)O2 [ACRONINE] ?
Outgoing: 32.3 µM (inactive)

Incoming: Likewise for CC1CSc2nc3nc(S)nc-3c(O)n2C1 (stereo not given) ?
Outgoing: > 100 µM (inactive)

Incoming: Likewise for C#Cc1cccc(N2C(=O)c3c(c(-c4ccccc4)c(-c4ccc(Cc5ccc(-c6c(-c7ccccc7)c7c(c(-c8ccccc8)c6-c6ccccc6)C(=O)N(c6cccc(C#C)c6)C7=O)cc5)cc4)c(-c4ccccc4)c3-c3ccccc3)C2=O)c1 ?
Outgoing: 37.8 µM (inactive)

Incoming: Likewise for CCCCCCCCCCCCCC(=O)OC1C(CO)OC(=O)C1O (stereo not given) ?
Outgoing: 58.3 µM (inactive)

Incoming: Likewise for CCc1cc(O)c(Cl)c(C)c1Cl ?
Outgoing: 20 µM (inactive)

Incoming: Likewise for O=c1[nH]c2ccc(C(F)(F)F)cc2nc1Cc1ccccc1 ?
Outgoing: 33.5 µM (inactive)

Incoming: Likewise for CCCCCC(C)SC1(C(=O)OC)CC(OC(C)=O)C(NC(C)=O)C([C@H](OC(C)=O)[C@@H](COC(C)=O)OC(C)=O)O1 (stereo not given in full) ?
Outgoing: > 100 µM (inactive)

Incoming: Likewise for CC1CC[P+](c2ccccc2)(c2ccccc2)c2c1ccc1ccccc21 (stereo not given) ?
Outgoing: 3.5 µM (inactive)

Incoming: Likewise for COc1ccc(/C=C/C(=O)NCC(NC(=O)/C=C/c2ccc(OC)c(OC)c2)C(=O)O)cc1OC (stereo not given) ?
Outgoing: > 100 µM (inactive)

Incoming: Likewise for O=C1C(Cl)=C(Nc2ccc(S(=O)(=O)O)cc2)C(=O)c2ccccc21 ?
Outgoing: 33.6 µM (inactive)

Incoming: Likewise for S=C(N/N=C/c1ccco1)NC12CC3CC(CC(C3)C1)C2 ?
Outgoing: > 100 µM (inactive)

Incoming: Likewise for COc1nc(C)nc2c1ncn2Cc1ccccc1 ?
Outgoing: > 100 µM (inactive)

Incoming: Likewise for O=c1[nH]c2cc([N+](=O)[O-])c(N/N=C/c3ccc(Cl)cc3Cl)c([N+](=O)[O-])c2[nH]1 ?
Outgoing: > 100 µM (inactive)

Incoming: Likewise for Oc1ccc(-c2c3ccccc3c(-c3ccc(OCCBr)cc3)c3ccccc23)cc1 ?
Outgoing: 16 µM (inactive)

Incoming: Likewise for COC(=O)CCN1CCN(CCO)CC1C (stereo not given) ?
Outgoing: > 10 µM (inactive)

Incoming: Likewise for COC(=O)c1ccc(Nc2nc3[nH]cnc3c(=O)[nH]2)cc1 ?
Outgoing: > 100 µM (inactive)

Incoming: Likewise for Cc1cn(CC2=NCC(C)(C)CN2)c(=O)[nH]c1=O ?
Outgoing: > 100 µM (inactive)

Incoming: Likewise for Cc1cc2c(c3nocc13)C(=O)c1ccccc1C2=O ?
Outgoing: > 100 µM (inactive)

Incoming: Likewise for O=c1cc(/N=N\c2ccc(Cl)cc2)[nH]c(=O)[nH]1 ?
Outgoing: 13.9 µM (inactive)
